Target: T1, human SLC34A2 (human, UniProt O95436 1-690)
T1 construct: whole, on cells; also called human solute carrier 34 A2; NaPi2b
T1 sequence (looked up): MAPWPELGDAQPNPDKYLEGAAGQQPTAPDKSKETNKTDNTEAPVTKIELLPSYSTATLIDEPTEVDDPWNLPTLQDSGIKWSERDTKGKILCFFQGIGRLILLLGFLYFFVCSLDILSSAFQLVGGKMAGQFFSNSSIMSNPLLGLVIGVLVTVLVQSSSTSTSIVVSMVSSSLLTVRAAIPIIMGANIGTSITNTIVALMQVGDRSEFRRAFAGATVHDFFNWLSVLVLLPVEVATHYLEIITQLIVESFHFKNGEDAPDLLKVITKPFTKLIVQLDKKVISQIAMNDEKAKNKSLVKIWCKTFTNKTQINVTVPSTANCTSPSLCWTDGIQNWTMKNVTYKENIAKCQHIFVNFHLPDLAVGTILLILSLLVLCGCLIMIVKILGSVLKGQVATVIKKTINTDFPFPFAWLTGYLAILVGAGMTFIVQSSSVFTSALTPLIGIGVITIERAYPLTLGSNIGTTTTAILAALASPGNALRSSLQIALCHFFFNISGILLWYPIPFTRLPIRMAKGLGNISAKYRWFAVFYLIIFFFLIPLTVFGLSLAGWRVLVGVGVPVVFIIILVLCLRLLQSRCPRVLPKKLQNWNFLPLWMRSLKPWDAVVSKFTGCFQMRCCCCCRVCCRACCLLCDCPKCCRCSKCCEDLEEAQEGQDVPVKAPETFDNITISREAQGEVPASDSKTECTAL
Experiment: FACS, OVCAR3 cells
Protocol: The binding of these humanized antibodies to OVCAR3 cells was evaluated as described above, and the results are shown in FIG. 12A-D and Tables 16A-D.
quantity kind: pEC50
Just the number, please; pEC50 means minus log10 of the concentration in mol/L.

Below, 3 binders whose answers are already recorded.
30H9B8F9.p1.z14 hIgG1 (antibody, V domains shown, humanized hIgG1) VH: QVQLVQSGAEVVKPGASVKMSCKTSGYTFTTNNMHWVKQAPGQGLEWIGAIYPGSGATAYNQKFKGRATLTADKSTSTAYMELSSLRSEATAVYYCARGMYGHGAMDYWGQGTSVTVSS VL: DIQLTQSPSFLSASVGDRVTITCKASQDVGTAVAWYQQKPGKSPKLLIYWATTRHSGVPDRFSGSGSGTEFTFTISSLQPEDFATYFCQQYSSNPLTFGQGTKLEIK ... 8.88
30H9B8F9.p1.z10 hIgG1 (antibody, V domains shown, humanized hIgG1) VH: QVQLVQSGAEVVKPGASVKVSCKTSGYTFTTNNMHWVRQAPGQGLEWIGAIYPGSGATAYNQKFKGRVTLTADKSTSTAYMELSSLRSEATAVYYCARGMYGHGAMDYWGQGTLVTVSS VL: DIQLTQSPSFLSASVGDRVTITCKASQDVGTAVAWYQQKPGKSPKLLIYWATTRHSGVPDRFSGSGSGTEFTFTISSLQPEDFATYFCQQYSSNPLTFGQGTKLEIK ... 8.71
30H9B8F9.p1.z2 hIgG1 (antibody, V domains shown, humanized hIgG1) VH: QVQLVQSGAEVKKPGASVKVSCKASGYTFTTNNMHWVRQAPGQGLEWMGAIYPGSGATAYNQKFKGRVTMTRDTSTSTVYMELSSLRSEDTAVYYCASGMYGHGAMDYWGQGTLVTVSS VL: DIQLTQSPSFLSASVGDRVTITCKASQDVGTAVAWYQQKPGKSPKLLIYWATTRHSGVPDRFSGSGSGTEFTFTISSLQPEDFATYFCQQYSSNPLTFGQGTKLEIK ... 8.51

Determine from records and report pEC50 for 62G10E4G8.p3.z3 hIgG1 (antibody, V domains shown, humanized hIgG1) VH: QVQLVQSGAEVKKPGASVKVSCKASGYTFPSYITHWVRQAPGQGLEWMGAIYPGNADTSYIQKFKGRVTMTRDTSTSTVYMELSSLRSEDTAVYYCARGTYGTSAWFTYWGQGTLVTVSS VL: EIVLTQSPATLSVSPGERATLSCRARQNIGNNLYWYQQKPGQSPRLLIKYASQSISGIPSRFSGSGSGTDFTLTISSLQSEDFAVYFCQQSFSWPLTFGQGTKLEIK
7.76

Determine from records and report pEC50 for 62G10E4G8.p3.z9 hIgG1 (antibody, V domains shown, humanized hIgG1) VH: QVQLVQSGAEVKKPGASVKVSCKASGYTFPSYITHWVKQAPGQGLEWIGAIYPGNADTSYIQKFKGRVTLTADKSTSTAYMELSSLRSEDTAVYYCARGTYGTSAWFTYWGQGTLVTVSS VL: EIVMTQSPATLSVSPGERATLSCRARQNIGNNLYWYQQKPGQAPRLLIYYASQSISGIPARFSGSGSGTEFTLTISSLQSEDFAVYYCQQSFSWPLTFGQGTKLEIK
7.62

Value source: patent US20240301052A1
